target: Geobacillus kaustophilus Old Yellow Enzyme (GkOYE, YP—148185.1) mutant H167A (Geobacillus kaustophilus, UniProt Q5KXG9, H167A); assay: Titration of GkOYE mutant H167A with pHBA
Sequence (Q5KXG9 whole entry H167A): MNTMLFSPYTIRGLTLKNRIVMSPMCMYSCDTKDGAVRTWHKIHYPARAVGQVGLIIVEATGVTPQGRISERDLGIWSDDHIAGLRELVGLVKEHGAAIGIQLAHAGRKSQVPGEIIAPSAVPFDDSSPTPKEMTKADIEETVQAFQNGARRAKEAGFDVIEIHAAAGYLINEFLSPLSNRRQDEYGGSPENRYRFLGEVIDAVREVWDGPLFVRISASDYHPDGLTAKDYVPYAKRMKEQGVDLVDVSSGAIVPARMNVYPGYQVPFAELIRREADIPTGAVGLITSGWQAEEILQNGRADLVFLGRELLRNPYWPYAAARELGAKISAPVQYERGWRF
attribute measured: Kd

Suppose we examine the compound O=Cc1ccc(O)cc1 ; what Kd value has been reported?
1 to 10 mM

----------
biological target: Geobacillus kaustophilus Old Yellow Enzyme (GkOYE, YP—148185.1) mutant H164A (Geobacillus kaustophilus, UniProt Q5KXG9, H164A); experiment: Titration of GkOYE mutant H164A with pHBA
Sequence (Q5KXG9 whole entry H164A): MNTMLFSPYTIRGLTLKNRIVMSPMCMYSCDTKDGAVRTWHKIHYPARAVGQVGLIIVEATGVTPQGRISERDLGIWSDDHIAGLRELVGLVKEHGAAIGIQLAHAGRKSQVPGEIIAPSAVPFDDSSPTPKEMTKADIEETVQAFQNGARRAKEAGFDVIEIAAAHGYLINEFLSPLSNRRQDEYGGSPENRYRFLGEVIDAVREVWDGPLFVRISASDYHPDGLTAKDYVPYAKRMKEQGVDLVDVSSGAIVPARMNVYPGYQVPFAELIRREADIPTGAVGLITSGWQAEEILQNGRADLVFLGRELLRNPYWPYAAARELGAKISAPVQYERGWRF
attribute measured: Kd

Suppose we examine the compound O=Cc1ccc(O)cc1 ; what Kd value has been reported?
1 to 10 mM
